assay: The drug is tested on Z-004 corresponding to metagenome with ENA study accession number: PRJEB37062 and ENA sample accession number: ERS12561804 for biotransformation under anaerobic condition. The drug concentrations were measured over 9 timepoints collected between 0 and 24 hours of incubation by liquid-chromatography-coupled mass spectrometry (LC–MS); conditions: 2 µM; note: call rule not given here
measured_quantity: Bacterial Biotransformation

molecule: Nc1c2c(nc3ccccc13)CCCC2 [TACRINE]
Bacterial Biotransformation: Compound NOT metabolized

molecule: O=C(O)CCc1nc(-c2ccccc2)c(-c2ccccc2)o1 [OXAPROZIN]
Bacterial Biotransformation: Compound NOT metabolized

molecule: C#C[C@]1(O)CC[C@H]2[C@@H]3CCC4=CC(=O)CC[C@@H]4[C@H]3CC[C@@]21CC [LEVONORGESTREL]
Bacterial Biotransformation: Compound metabolized

molecule: CN1C(C(=O)Nc2ccccn2)=C(O)c2sccc2S1(=O)=O [TENOXICAM]
Bacterial Biotransformation: Compound NOT metabolized

We next turn to a different molecule, shown below.
Ask: Specify reported Bacterial Biotransformation for the molecule shown: OCCOCCN1CCN(C2=Nc3ccccc3Sc3ccccc32)CC1 [QUETIAPINE]
Reply: Compound metabolized

* * *

settings: human gut metagenome, 24 h, 2 µM
measured_quantity: Bacterial Biotransformation

For orientation, consider the following solved cases.
molecule: CCN(CC)CCOC(=O)C(Cc1cccc2ccccc12)CC1CCCO1.O=C(O)C(=O)O (stereo not drawn) [NAFRONYL OXALATE]
measured_quantity: Bacterial Biotransformation
measurement: Compound metabolized

molecule: CN(C)C(=O)C(CCN1CCC(O)(c2ccc(Cl)cc2)CC1)(c1ccccc1)c1ccccc1 [LOPERAMIDE]
measured_quantity: Bacterial Biotransformation
measurement: Compound metabolized

molecule: OC(Cn1cncn1)(Cn1cncn1)c1ccc(F)cc1F
measured_quantity: Bacterial Biotransformation
measurement: Compound metabolized

molecule: CCN(CC)CC#CCOC(=O)C(O)(c1ccccc1)C1CCCCC1.Cl (stereo not drawn) [OXYBUTYNIN CHLORIDE]
measured_quantity: Bacterial Biotransformation
measurement: Compound metabolized

molecule: O=c1[nH]c2ccccc2n1C1CCN(CCCC(c2ccc(F)cc2)c2ccc(F)cc2)CC1 [PIMOZIDE]
measured_quantity: Bacterial Biotransformation
measurement: Compound metabolized

molecule: CC(=O)OCC(=O)[C@@]1(O)[C@@H](C)C[C@H]2[C@@H]3CCC4=CC(=O)C=C[C@]4(C)[C@@]3(F)[C@@H](O)C[C@@]21C [BETAMETHASONE ACETATE]
measured_quantity: Bacterial Biotransformation
measurement: Compound metabolized

Ask: Specify reported Bacterial Biotransformation for the molecule shown: CC[C@@H](CO)NC(=O)[C@@H]1C=C2c3cccc4c3c(cn4C)C[C@H]2N(C)C1.O=C(O)/C=C\C(=O)O [METHYSERGIDE MALEATE]
Reply: Compound metabolized

* * *

experiment: The drug is tested on Z-005 corresponding to metagenome with ENA study accession number: PRJEB37062 and ENA sample accession number: ERS12561805 for biotransformation under anaerobic condition. The drug concentrations were measured over 9 timepoints collected between 0 and 24 hours of incubation by liquid-chromatography-coupled mass spectrometry (LC–MS); settings: 2 µM
measured_quantity: Bacterial Biotransformation

For orientation, consider the following solved cases.
compound: COc1cc2nc(N3CCN(C(=O)c4ccco4)CC3)nc(N)c2cc1OC [PRAZOSIN]
measurement: Compound NOT metabolized
//
compound: COC(=O)[C@H]1[C@H]2C[C@@H]3c4[nH]c5cc(OC)ccc5c4CCN3C[C@H]2C[C@@H](OC(=O)c2cc(OC)c(OC)c(OC)c2)[C@@H]1OC [RESERPINE]
measurement: Compound NOT metabolized
//
compound: CC(C)N(CCC(C(N)=O)(c1ccccc1)c1ccccn1)C(C)C.O=P(O)(O)O (stereo not given) [DISOPYRAMIDE PHOSPHATE]
measurement: Compound NOT metabolized
//
compound: O=C(NCc1ccccc1)OCCO [BURAMATE]
measurement: Compound NOT metabolized
//
compound: Cc1ccnc2c1NC(=O)c1cccnc1N2C1CC1 [NEVIRAPINE]
measurement: Compound NOT metabolized
//
compound: CCCc1nn(C)c2c(=O)[nH]c(-c3cc(S(=O)(=O)N4CCN(C)CC4)ccc3OCC)nc12.O=C(O)CC(O)(CC(=O)O)C(=O)O [SILDENAFIL CITRATE]
measurement: Compound NOT metabolized
//
compound: O=C(Nc1ccccc1)OCC(CN1CCCCC1)OC(=O)Nc1ccccc1 (stereo not given) [DIPERODON]
measurement: Compound NOT metabolized
//
compound: CN1C(=O)CC(C)(c2ccccc2)C1=O (stereo not given) [METHSUXIMIDE]
measurement: Compound NOT metabolized
//
compound: CN1CCC(=C2c3ccccc3CCc3cccnc32)CC1.O=C(O)/C=C\C(=O)O.O=C(O)/C=C\C(=O)O [AZATADINE MALEATE]
measurement: Compound NOT metabolized
//
compound: COc1ccc2[nH]c([S+]([O-])Cc3ncc(C)c(OC)c3C)nc2n1 (stereo not given) [TENATOPRAZOLE]
measurement: Compound metabolized

Ask: Specify reported Bacterial Biotransformation for the compound shown: Cc1nc2n(c(=O)c1CCN1CCC(c3noc4cc(F)ccc34)CC1)CCCC2 [RISPERIDONE]
Reply: Compound metabolized

Ask: Specify reported Bacterial Biotransformation for the compound shown: CN1CCOC(c2ccccc2)c2ccccc2C1 (stereo not given) [NEFOPAM]
Reply: Compound NOT metabolized

Ask: Specify reported Bacterial Biotransformation for the compound shown: OC(CCN1CCCCC1)(c1ccccc1)C1CCCCC1 (stereo not given) [TRIHEXYPHENIDYL]
Reply: Compound metabolized

Ask: Specify reported Bacterial Biotransformation for the compound shown: "Cc1cc2c(cc1S(N)(=O)=O)S(=O)(=O)CCC2"
Reply: Compound NOT metabolized

Ask: Specify reported Bacterial Biotransformation for the compound shown: CCCC1O[C@@H]2C[C@H]3[C@@H]4CCC5=CC(=O)C=C[C@]5(C)[C@H]4[C@@H](O)C[C@]3(C)[C@]2(C(=O)CO)O1 (stereo not given in full) [BUDESONIDE]
Reply: Compound metabolized

Ask: Specify reported Bacterial Biotransformation for the compound shown: O=P(O)(O)O.c1ccc(CN(CC2=NCCN2)c2ccccc2)cc1 [ANTAZOLINE PHOSPHATE]
Reply: Compound NOT metabolized

Ask: Specify reported Bacterial Biotransformation for the compound shown: CN/C(=N/CCSCc1nc[nH]c1C)NC#N [CIMETIDINE]
Reply: Compound metabolized

Ask: Specify reported Bacterial Biotransformation for the compound shown: CN1CCN(C(=O)O[C@H]2c3nccnc3C(=O)N2c2ccc(Cl)cn2)CC1 [ESZOPICLONE]
Reply: Compound NOT metabolized

Ask: Specify reported Bacterial Biotransformation for the compound shown: COc1cc2nc(N(C)CCCNC(=O)C3CCCO3)nc(N)c2cc1OC (stereo not given) [ALFUZOSIN]
Reply: Compound NOT metabolized

Ask: Specify reported Bacterial Biotransformation for the compound shown: CCN(CC)CC#CCOC(=O)C(O)(c1ccccc1)C1CCCCC1.Cl (stereo not given) [OXYBUTYNIN CHLORIDE]
Reply: Compound metabolized

* * *

test: The drug is tested on Z-010 corresponding to metagenome with ENA study accession number: PRJEB37062 and ENA sample accession number: ERS12561810 for biotransformation under anaerobic condition. The drug concentrations were measured over 9 timepoints collected between 0 and 24 hours of incubation by liquid-chromatography-coupled mass spectrometry (LC–MS); details: 2 µM
measured_quantity: Bacterial Biotransformation

For orientation, consider the following solved cases.
molecule: CC(C)NCC(O)COc1ccc(CCOCC2CC2)cc1 (stereo not drawn) [BETAXOLOL]
Bacterial Biotransformation: Compound NOT metabolized
//
molecule: CCc1nc(N)nc(N)c1-c1ccc(Cl)cc1 [PYRIMETHAMINE]
Bacterial Biotransformation: Compound NOT metabolized
//
molecule: CS(=O)(=O)O.OC(CCN1CCCCC1)(c1ccccc1)c1ccccc1 [PRIDINOL METHANESULFONATE]
Bacterial Biotransformation: Compound NOT metabolized
//
molecule: C=CCc1ccccc1OCC(O)CNC(C)C (stereo not drawn) [ALPRENOLOL]
Bacterial Biotransformation: Compound NOT metabolized
//
molecule: CN1CCC(=C2c3ccccc3CCc3cccnc32)CC1.O=C(O)/C=C\C(=O)O.O=C(O)/C=C\C(=O)O [AZATADINE MALEATE]
Bacterial Biotransformation: Compound NOT metabolized
//
molecule: O=c1[nH]c2ccccc2n1C1CCN(CCCC(c2ccc(F)cc2)c2ccc(F)cc2)CC1 [PIMOZIDE]
Bacterial Biotransformation: Compound metabolized

Ask: Specify reported Bacterial Biotransformation for the molecule shown: CN(C)CCc1c[nH]c2ccc(Cn3cncn3)cc12.O=C(O)c1ccccc1 [RIZATRIPTAN BENZOATE]
Reply: Compound NOT metabolized

Ask: Specify reported Bacterial Biotransformation for the molecule shown: CC(=O)CC(c1ccccc1)c1c(O)c2ccccc2oc1=O (stereo not drawn) [WARFARIN]
Reply: Compound metabolized

* * *

experiment: The drug is tested on Z-022 corresponding to mouse gut metagenome with ENA study accession number: PRJEB37062 and ENA sample accession number: ERS12561821 for biotransformation under anaerobic condition. The drug concentrations were measured over 9 timepoints collected between 0 and 24 hours of incubation by liquid-chromatography-coupled mass spectrometry (LC–MS); conditions: 2 µM
measured_quantity: Bacterial Biotransformation

For orientation, consider the following solved cases.
compound: Nc1ccc(/N=N/c2ccccc2)c(N)n1
measured_quantity: Bacterial Biotransformation
measurement: Compound metabolized
//
compound: OC(Cn1cncn1)(Cn1cncn1)c1ccc(F)cc1F
measured_quantity: Bacterial Biotransformation
measurement: Compound metabolized
//
compound: CN/C(=N/CCSCc1nc[nH]c1C)NC#N
measured_quantity: Bacterial Biotransformation
measurement: Compound NOT metabolized
//
compound: COc1cc2nc(N3CCN(C(=O)c4ccco4)CC3)nc(N)c2cc1OC
measured_quantity: Bacterial Biotransformation
measurement: Compound NOT metabolized
//
compound: O=C1NCC2(CCN(CCc3ccccc3)CC2)O1 [FENSPIRIDE]
measured_quantity: Bacterial Biotransformation
measurement: Compound metabolized
//
compound: CCCCCOC(=O)Nc1nc(=O)n([C@@H]2O[C@H](C)[C@@H](O)[C@H]2O)cc1F
measured_quantity: Bacterial Biotransformation
measurement: Compound NOT metabolized
//
compound: COc1ccc2[nH]c([S+]([O-])Cc3ncc(C)c(OC)c3C)nc2n1 (stereo not drawn)
measured_quantity: Bacterial Biotransformation
measurement: Compound NOT metabolized
//
compound: CNCCC(Oc1ccc(C(F)(F)F)cc1)c1ccccc1 (stereo not drawn)
measured_quantity: Bacterial Biotransformation
measurement: Compound NOT metabolized

We next turn to a different compound, shown below.
Ask: Specify reported Bacterial Biotransformation for the compound shown: CCCCCCOC(=O)/N=C(/N)c1ccc(NCc2nc3cc(C(=O)N(CCC(=O)OCC)c4ccccn4)ccc3n2C)cc1.CS(=O)(=O)O [DABIGATRAN ETEXILATE MESYLATE]
Reply: Compound NOT metabolized
